Observed pIC50, system PRKCD (Homo sapiens).
Here pIC50 is given on a logarithmic scale as minus log10 of the concentration in mol/L.

Form: compound = `CN1CCN(c2ccc(Nc3ncc(C#N)c(Nc4ccccc4C(N)=O)n3)cc2)CC1.Cl` ; pIC50 = 6.07

Turning to the following compound.
Kindly note the recorded pIC50 for `Cl.NCC1(c2nc(-c3ccc(Cl)c(O)c3)c(-c3ccncc3)[nH]2)CCCCC1` , which is 6.00

---

Sequence of the target: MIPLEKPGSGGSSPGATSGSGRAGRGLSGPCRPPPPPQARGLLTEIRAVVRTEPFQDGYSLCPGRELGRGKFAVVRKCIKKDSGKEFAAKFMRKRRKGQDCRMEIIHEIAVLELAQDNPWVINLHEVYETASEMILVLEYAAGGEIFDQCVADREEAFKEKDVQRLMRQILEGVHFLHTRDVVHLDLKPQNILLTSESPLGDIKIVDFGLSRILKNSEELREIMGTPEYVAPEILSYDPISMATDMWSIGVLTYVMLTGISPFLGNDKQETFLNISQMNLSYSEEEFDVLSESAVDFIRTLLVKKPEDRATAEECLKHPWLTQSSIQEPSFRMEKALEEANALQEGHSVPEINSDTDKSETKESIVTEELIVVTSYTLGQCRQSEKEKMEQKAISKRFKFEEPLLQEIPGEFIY
Measured pIC50 values are reported for all entries that follow.
Quick note: pIC50 values are minus log10 of concentrations in mol/L.

// sample CN(C)CC(O)COc1ccc(Nc2ncc([N+](=O)[O-])c(Nc3ccccc3O)n2)cc1.O=C(O)C(F)(F)F (stereo not drawn) [TCMDC-141399] , its pIC50 was 5.38

Please examine the following record next.
Recorded pIC50 (compound CN1CCN(c2ccc(Nc3ncc(C#N)c(Nc4ccccc4C(N)=O)n3)cc2)CC1.Cl [TCMDC-134116] ): 6.74

---

biological target: EPHB4 (Homo sapiens, UniProt P54760); assay: biochemical; settings: read-out: KDapp
Sequence (P54760 whole entry): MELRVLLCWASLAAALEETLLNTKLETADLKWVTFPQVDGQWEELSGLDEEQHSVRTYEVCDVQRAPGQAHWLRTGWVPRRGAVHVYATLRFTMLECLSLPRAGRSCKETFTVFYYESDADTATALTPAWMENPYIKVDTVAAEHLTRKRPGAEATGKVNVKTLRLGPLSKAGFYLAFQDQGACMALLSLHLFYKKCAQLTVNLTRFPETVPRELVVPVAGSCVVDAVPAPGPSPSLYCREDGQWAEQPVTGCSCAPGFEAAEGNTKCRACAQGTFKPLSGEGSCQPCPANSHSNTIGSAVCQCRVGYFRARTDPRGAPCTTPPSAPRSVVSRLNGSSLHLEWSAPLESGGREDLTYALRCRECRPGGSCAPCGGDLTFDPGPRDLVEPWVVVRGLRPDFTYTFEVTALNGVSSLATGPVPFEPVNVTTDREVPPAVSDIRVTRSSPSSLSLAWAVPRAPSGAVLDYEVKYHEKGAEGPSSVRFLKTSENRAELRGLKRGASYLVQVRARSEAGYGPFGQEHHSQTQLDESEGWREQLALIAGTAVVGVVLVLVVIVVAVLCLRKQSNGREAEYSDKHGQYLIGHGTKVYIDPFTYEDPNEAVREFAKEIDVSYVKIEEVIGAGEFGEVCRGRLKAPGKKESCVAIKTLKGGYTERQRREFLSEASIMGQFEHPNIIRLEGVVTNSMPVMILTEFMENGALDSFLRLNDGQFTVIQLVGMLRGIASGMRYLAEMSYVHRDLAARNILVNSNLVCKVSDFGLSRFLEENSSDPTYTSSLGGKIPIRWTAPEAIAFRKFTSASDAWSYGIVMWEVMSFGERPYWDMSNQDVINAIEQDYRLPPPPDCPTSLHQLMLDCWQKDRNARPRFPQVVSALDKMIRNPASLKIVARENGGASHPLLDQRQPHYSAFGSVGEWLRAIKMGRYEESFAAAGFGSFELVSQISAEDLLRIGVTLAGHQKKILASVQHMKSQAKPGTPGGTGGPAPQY
Property label: pKd
The scale used: pKd is minus the common logarithm of the concentration in molar units.

Kindly note the recorded pKd for `Cl.NCC1(c2nc(-c3ccc(Cl)c(O)c3)c(-c3ccncc3)[nH]2)CCCCC1` , which is 5.59

// below: pKd requested for another compound
// `CN1CCN(c2ccc(Nc3ncc(C#N)c(Nc4ccccc4C(N)=O)n3)cc2)CC1.Cl` : pKd value = 5.68

---

target: MARK2 (Homo sapiens, UniProt Q7KZI7); assay: biochemical; parameters: endogenous in cells; host or cells: K562 cell extract; species or system K562 (extract); replicate k of n = 2 (each experiment ID is one independent experiment; two experiment IDs per compound); conditions: read-out: KDapp
Sequence (Q7KZI7 whole entry): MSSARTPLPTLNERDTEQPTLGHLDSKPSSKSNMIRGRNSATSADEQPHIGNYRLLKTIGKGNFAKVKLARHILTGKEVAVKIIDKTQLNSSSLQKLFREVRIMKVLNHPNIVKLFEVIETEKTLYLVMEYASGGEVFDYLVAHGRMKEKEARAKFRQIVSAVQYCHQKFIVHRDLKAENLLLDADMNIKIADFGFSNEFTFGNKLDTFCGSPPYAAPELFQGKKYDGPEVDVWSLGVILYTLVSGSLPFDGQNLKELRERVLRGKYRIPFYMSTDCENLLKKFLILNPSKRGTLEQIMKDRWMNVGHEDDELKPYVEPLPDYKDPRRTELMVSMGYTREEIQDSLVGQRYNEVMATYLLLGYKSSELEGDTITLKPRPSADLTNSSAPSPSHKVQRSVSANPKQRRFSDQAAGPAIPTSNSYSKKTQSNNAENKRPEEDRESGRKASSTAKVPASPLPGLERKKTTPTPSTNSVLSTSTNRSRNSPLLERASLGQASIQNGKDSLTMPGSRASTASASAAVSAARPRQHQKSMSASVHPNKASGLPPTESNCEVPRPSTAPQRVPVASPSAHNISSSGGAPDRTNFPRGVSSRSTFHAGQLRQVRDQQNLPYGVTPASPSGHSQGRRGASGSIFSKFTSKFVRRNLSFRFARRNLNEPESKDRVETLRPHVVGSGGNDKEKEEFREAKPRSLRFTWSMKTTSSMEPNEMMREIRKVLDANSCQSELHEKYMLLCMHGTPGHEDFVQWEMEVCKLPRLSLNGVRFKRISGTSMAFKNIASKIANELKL
Property label: pKd
Quick note: pKd values are minus log10 of concentrations in mol/L.

Param item: CN(C)CC(O)COc1ccc(Nc2ncc([N+](=O)[O-])c(Nc3ccccc3O)n2)cc1.O=C(O)C(F)(F)F (stereo not shown) ; param system: MARK2 (Homo sapiens, UniProt Q7KZI7); output pKd: 5.45

---

Reported values of pKd for individual entries
biological target: CSNK2A1 (Homo sapiens, UniProt P68400); experiment: biochemical; conditions: read-out: KDapp
Sequence (P68400 whole entry): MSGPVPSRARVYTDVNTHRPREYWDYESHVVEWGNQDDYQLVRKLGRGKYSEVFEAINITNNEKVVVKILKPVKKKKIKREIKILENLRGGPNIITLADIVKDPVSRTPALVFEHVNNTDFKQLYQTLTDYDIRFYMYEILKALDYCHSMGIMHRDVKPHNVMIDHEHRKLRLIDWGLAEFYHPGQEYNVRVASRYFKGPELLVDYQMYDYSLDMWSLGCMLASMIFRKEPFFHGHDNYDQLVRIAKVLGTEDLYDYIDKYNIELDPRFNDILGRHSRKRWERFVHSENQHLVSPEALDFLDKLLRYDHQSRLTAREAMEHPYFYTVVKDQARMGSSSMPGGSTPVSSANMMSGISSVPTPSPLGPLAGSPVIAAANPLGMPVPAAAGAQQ
The scale used: pKd is minus the common logarithm of the concentration in molar units.

Short answer for CN(C)CC(O)COc1ccc(Nc2ncc([N+](=O)[O-])c(Nc3ccccc3O)n2)cc1.O=C(O)C(F)(F)F (centres unmarked) : pKd was 7.20

Kindly review the next molecule as well.
`CN1CCN(c2ccc(Nc3ncc(C#N)c(Nc4ccccc4C(N)=O)n3)cc2)CC1.Cl` yielded pKd of 7.63
